# System: CD2F1 mice, L1210 leukemia ip, survival T/C
# method_description: NCI In Vivo Anticancer Drug Screen. Data for tumor model L1210 Leukemia (intraperitoneal) in CD2F1 (CDF1) mice
# protocol_conditions: endpoint: mean survival time; dose: 25.0 mg/kg/injection; schedule: Q01DX009 (ip); vehicle: saline with Tween-80
Toxic doses and inconclusive results are not listed. The calls were made as follows: active = survival T/C of 150% or more; inactive = T/C below 125% in these data.
Select the matching outcome among 1 for active, -1 for inactive

Here's what some known entries look like.
[[record]]
compound = "C1CC[N-]CC1.CC(=N\\O)/C(C)=N/O.CC(=N\\O)/C(C)=N/O.[CH2-]CCN1CCOCC1.[Co+2]"
label_class = -1

[[record]]
compound = "O=[N+]([O-])c1cccc(N=Nn2cccc2)c1"
label_class = -1

[[record]]
compound = "O=C(Nc1ccccc1)Oc1ccc(OCc2ccccc2)cc1"
label_class = -1

[[record]]
compound = "CCCCCCN=C(N)NC(=O)OC"
label_class = -1

[[record]]
compound = "NC(=S)N/N=C/c1ccc(O)cn1"
label_class = 1


Recorded call for CC(C)(CBr)COC(=O)Nc1cccc2ccccc12 ?
-1

Can you check Cc1cc2sccc2cn1 next?
-1

Next compound up: N#CCc1ccc(Cl)c(Cl)c1
-1

// same read-out, input: NCCSc1ccccc1
-1

Further, for CC1CCCN(CCSSCCN2CCCC(C)C2)C1 (centres undefined) ?
-1

Likewise for O=c1ccccn1CCc1ccccc1 ?
-1

COc1ccc([I+]c2ccccc2)cc1 ?
-1

What do you have for O=S(=O)(Cc1ccc(CS(=O)(=O)c2ccc(Cl)cc2)cc1)c1ccc(Cl)cc1 ?
-1

Record: CCN(CC)CCNC1CCCCC1
-1

Another compound to look at: CN1CCCN(C)C1c1cc(Cl)ccc1O
-1

Can you check CC1=CC(=O)C(C(C)C)CC1=O (centres undefined) next?
-1

Okay, and CC1(C)N=C(N)N=C(N)N1c1ccc(OCCCCNC(=O)c2ccc(S(=O)(=O)F)cc2)c(Cl)c1 ?
-1

Another compound: N=C(N)SCCCSC(=N)N
-1

Try the compound CCN(CC)CCOc1ccc(/C(=C(\Cl)c2ccccc2)c2ccccc2)cc1
-1

Do the same for O=c1oc2ccccc2c(O)c1-c1cccc2ccccc12 please
-1

====

# System: CD2F1 mice, L1210 leukemia ip, survival T/C
# method_description: NCI In Vivo Anticancer Drug Screen. Data for tumor model L1210 Leukemia (intraperitoneal) in CD2F1 (CDF1) mice
# protocol_conditions: endpoint: mean survival time; dose: 50.0 mg/kg/injection; schedule: Q01DX009 (ip); vehicle: other
Inconclusive results and toxic doses are left out. How the source made its calls: active means survival T/C of 150% or more; inactive means T/C below 125% in these data.
Respond only with the outcome that fits, drawn from t for active, f for inactive

Sample answers from the record:
[[record]]
compound = "Cc1ccc(CNc2ccccc2)cc1"
measured_on = "CD2F1 mice, L1210 leukemia ip, survival T/C"
label_class = "f"

[[record]]
compound = "O=C(Cl)C12CC3CC(CC(C3)C1)C2"
measured_on = "CD2F1 mice, L1210 leukemia ip, survival T/C"
label_class = "f"

[[record]]
compound = "CCCCCCCCCCCCCCCCCC(=O)OC1C(CO)OC2C1Oc1nc(=N)ccn12 (centres undefined)"
measured_on = "CD2F1 mice, L1210 leukemia ip, survival T/C"
label_class = "t"


Consider the additional compound presented here.
What outcome does the record of this test show for COc1ccc2nc3cc(Cl)ccc3c(Nc3cccc(NS(C)(=O)=O)c3)c2n1 ?
f
